Data provenance: patent US20250195504A1

# target or test system: hα1D (Homo sapiens, UniProt P25100)
# Sequence (P25100 whole entry): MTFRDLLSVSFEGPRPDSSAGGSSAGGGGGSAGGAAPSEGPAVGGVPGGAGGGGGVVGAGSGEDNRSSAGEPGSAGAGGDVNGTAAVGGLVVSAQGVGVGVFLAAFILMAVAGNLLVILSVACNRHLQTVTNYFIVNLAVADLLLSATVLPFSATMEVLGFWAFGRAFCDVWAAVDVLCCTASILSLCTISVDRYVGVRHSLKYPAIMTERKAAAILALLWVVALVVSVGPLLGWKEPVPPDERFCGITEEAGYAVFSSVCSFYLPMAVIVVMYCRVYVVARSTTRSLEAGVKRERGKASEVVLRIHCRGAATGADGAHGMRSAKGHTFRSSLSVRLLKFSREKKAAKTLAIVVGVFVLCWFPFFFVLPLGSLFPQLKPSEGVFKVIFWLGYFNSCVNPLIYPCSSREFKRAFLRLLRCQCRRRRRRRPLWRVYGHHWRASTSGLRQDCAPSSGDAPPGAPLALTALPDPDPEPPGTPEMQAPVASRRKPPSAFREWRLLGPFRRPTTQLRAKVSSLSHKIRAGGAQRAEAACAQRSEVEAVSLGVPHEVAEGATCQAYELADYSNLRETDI
pKi: −log10 of the molar value. Structures can show the parent of a compound that is named as a salt.
property measured: pKi

molecule	endpoint result
O=C(N[C@H]1CCC2(O)C3Cc4ccc(O)c5c4[C@@]2(CCN3CC2CC2)[C@H]1O5)c1ccc[nH]1 (stereo partly shown) [Example 1 compound 1, hydrochloride]	6.11

----------
# target or test system: KOR (Mus musculus, UniProt P33534)
# Sequence (P33534 whole entry): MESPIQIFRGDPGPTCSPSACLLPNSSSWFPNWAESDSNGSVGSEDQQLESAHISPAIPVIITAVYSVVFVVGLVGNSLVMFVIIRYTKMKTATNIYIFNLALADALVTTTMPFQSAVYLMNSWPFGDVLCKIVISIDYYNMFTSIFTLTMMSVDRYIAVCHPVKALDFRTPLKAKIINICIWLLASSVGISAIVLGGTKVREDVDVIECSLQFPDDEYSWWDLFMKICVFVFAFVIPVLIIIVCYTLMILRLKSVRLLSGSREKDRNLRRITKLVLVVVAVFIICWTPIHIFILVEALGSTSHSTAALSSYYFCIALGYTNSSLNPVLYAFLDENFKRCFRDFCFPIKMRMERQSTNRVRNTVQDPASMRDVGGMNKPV
# assay procedure: KOR [35S]GTPγS binding assay
# condition notes: Tables A, B; read-out: 35S-GTP[γS]-Binding KOR Potency EC50
Where a name gives a salt, the structure may show the parent alone.
property measured: EC50 (nM)

> print(dat)
                                   compound  endpoint.result
1  O=C(N[C@H]1CC[C@@]2(O)[C@H]3Cc4ccc(O)c5c4[C@@]2(CCN3CC2CC2)[C@H]1O5)c1nccs1 [NTZ, hydrochloride]             3.83
